# study system: purified catalytic domain of recombinant human TACE (rhTACEc) (Homo sapiens, UniProt P78536, N452Q/S266A)
# Construct: 6xHis (C); made in house; host or cells: baculovirus/Hi5 insect cells
# Sequence (P78536 215-477 S266A/N452Q): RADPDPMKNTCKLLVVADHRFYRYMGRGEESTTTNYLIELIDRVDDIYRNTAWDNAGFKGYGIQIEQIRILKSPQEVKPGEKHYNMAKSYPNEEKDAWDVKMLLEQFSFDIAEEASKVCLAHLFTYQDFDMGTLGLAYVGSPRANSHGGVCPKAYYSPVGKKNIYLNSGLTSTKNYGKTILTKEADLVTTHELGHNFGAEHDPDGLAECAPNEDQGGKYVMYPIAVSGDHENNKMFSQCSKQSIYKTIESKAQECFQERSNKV
# measurement description: TACE kinetic assay: cleavage of internally quenched peptide substrate TNF-FRET 2 (Ki)
# Assay type: biochemical
# test context: TNF-FRET 2 substrate, read-out: Ki
pKi: −log10 of the molar value.
Form field: pKi (one value per entry).

# molecule, pKi
rows = [
    ("COc1ccc2c(c1F)C(=O)N(C[C@@]1(c3cc4cc(-c5c(C)nn(C)c5C)c(F)cc4o3)NC(=O)NC1=O)C2 [Compound 1181]", 9.39),
    ("COc1ccc2c(c1)C(=O)N(C[C@@]1(c3cc4cc(C5(C)NC(=O)NC5=O)cnc4o3)NC(=O)NC1=O)C2 (stereo partly shown)", 9.16),
    ("CCNC(=O)Nc1ccc2oc([C@]3(CN4Cc5ccc(OC)cc5C4=O)NC(=O)NC3=O)cc2n1", 8.95),
    ("COc1ccc2c(c1)C(=O)N(C[C@@]1(c3cc4cnc(-c5cccc(C#N)c5)cc4o3)NC(=O)NC1=O)C2 [Compound 2489]", 9.10),
    ("COc1ccc2c(c1)C(=O)N(C[C@@]1(c3cc4cnc(C5CC5)cc4o3)NC(=O)NC1=O)C2", 9.37),
    ("COc1ccc2c(c1F)C(=O)N(C[C@@]1(c3cc4cc(C)nc(C)c4o3)NC(=O)NC1=O)C2", 10.22),
    ("CCN1CCN(C(=NO)c2ccc3oc([C@]4(CN5Cc6ccc(OC)cc6C5=O)NC(=O)NC4=O)cc3c2)CC1", 9.29),
    ("COc1ccc2c(c1)C(=O)N(C[C@@]1(c3cc4nc(Nc5cnccn5)ccc4o3)NC(=O)NC1=O)C2", 9.40),
    ("COc1ccc2c(c1)C(=O)N(C[C@@]1(c3cc4nc(-c5ccncc5)ccc4o3)NC(=O)NC1=O)C2", 9.21),
    ("CNC(=O)c1ccc2oc([C@]3(CN4Cc5ccc(OC)cc5C4=O)NC(=O)NC3=O)cc2n1 [Compound 2462]", 9.07),
    ("COC(=O)c1cnc2cc([C@]3(CN4Cc5ccc(OC)cc5C4=O)NC(=O)NC3=O)oc2c1 [Compound 1928]", 9.28),
    ("COc1ccc2c(c1)C(=O)N(C[C@@]1(c3cc4cc(-n5cncn5)ccc4o3)NC(=O)NC1=O)C2", 9.19),
    ("COc1ccc2c(c1)C(=O)N(C[C@@]1(c3cc4cncc(Br)c4o3)NC(=O)NC1=O)C2", 9.51),
    ("COc1ccc2c(c1F)C(=O)N(C[C@@]1(c3cc4ncccc4o3)NC(=O)NC1=O)C2", 9.33),
    ("COc1ccc2c(c1F)C(=O)N(C[C@@]1(c3cc4cc(-c5c(C)n[nH]c5C)c(F)cc4o3)NC(=O)NC1=O)C2", 9.85),
    ("CCN1CCN(c2ccc3oc([C@]4(CN5Cc6ccc(OC)c(F)c6C5=O)NC(=O)NC4=O)cc3n2)CC1=O", 9.30),
    ("COc1ccc2c(c1)C(=O)N(C[C@@]1(c3cc4cc(/C=N/O)ccc4o3)NC(=O)NC1=O)C2", 9.40),
    ("CCNC(=O)NCc1ccc2oc([C@]3(CN4Cc5ccc(OC)cc5C4=O)NC(=O)NC3=O)cc2c1", 9.12),
    ("CCN1CCN(c2ccc3oc([C@]4(CN5Cc6ccc(OC)c(F)c6C5=O)NC(=O)NC4=O)cc3n2)C[C@@H]1C", 8.96),
    ("COc1ccc2c(c1F)C(=O)N(C[C@@]1(c3cc4cc5c(c(F)c4o3)CNC5=O)NC(=O)NC1=O)C2", 9.28),
    ("COc1ccc2c(c1)C(=O)N(C[C@@]1(c3cc4nc(N5CCC(OC)(OC)CC5)ccc4o3)NC(=O)NC1=O)C2", 9.12),
    ("COc1ccc2c(c1)C(=O)N(C[C@@]1(c3cc4ccc(C(=O)NC[C@H](C)O)cc4o3)NC(=O)NC1=O)C2", 9.29),
    ("COc1ccc2c(c1)C(=O)N(C[C@@]1(c3cc4cc(-c5cn[nH]c5)c(F)cc4o3)NC(=O)NC1=O)C2", 9.25),
    ("COc1ccc2c(c1)C(=O)N(C[C@@]1(c3cc4cc(CC(N)=O)ccc4o3)NC(=O)NC1=O)C2", 8.60),
    ("CCc1cc2oc([C@]3(CN4Cc5ccc(OC)cc5C4=O)NC(=O)NC3=O)cc2cn1", 9.58),
    ("COc1ccc2c(c1)C(=O)N(C[C@@]1(c3cc4nc(Nc5ccncc5)ccc4o3)NC(=O)NC1=O)C2", 9.37),
    ("COc1ccc2c(c1F)C(=O)N(C[C@@]1(c3cc4nc(N5CCCC(C(N)=O)C5)ccc4o3)NC(=O)NC1=O)C2 (stereo partly shown)", 9.30),
    ("CCNc1nnc(-c2ccc3cc([C@]4(CN5Cc6ccc(OC)cc6C5=O)NC(=O)NC4=O)oc3c2)o1", 9.60),
]
